Data credit: patent US20260166159A1

molecular target: KRAS-G12D (Homo sapiens, UniProt P01116, G12D); construct: endogenous in cells; host or cells: A-427 (ATCC), AGS, AsPc-1, Panc 04.03; test: KRAS-G12D degradation assay (Western Blot), A-427 cells; type: cell-based; settings: A-427; A427 cells, 24 h; class symbols
Sequence (P01116 1-188 isoform P01116-2 G12D): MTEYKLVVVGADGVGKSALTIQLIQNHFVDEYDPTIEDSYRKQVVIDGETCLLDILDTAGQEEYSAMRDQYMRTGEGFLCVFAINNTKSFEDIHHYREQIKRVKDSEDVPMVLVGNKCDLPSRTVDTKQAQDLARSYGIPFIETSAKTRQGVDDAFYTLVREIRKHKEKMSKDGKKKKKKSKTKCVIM
RECORDED_METRIC: Dmax

1) C#Cc1c(F)ccc2cc(O)cc(-c3ncc4c(N5CC6CCC(C5)N6)nc(OCC5(CN6CCN(CC7CCN(C(=O)c8ccc(Cl)c(N9CCC(=O)NC9=O)c8)CC7)CC6)CC5)nc4c3F)c12 | 30 to 50%
2) C#Cc1c(F)ccc2cc(O)cc(-c3ncc4c(N5CC6CCC(C5)N6)nc(OCC5(CN6CCN(CC7CCC8(CC7)CCN(C(=O)c7ccc(Br)c(N9CCC(=O)NC9=O)c7)CC8)CC6)CC5)nc4c3F)c12 | 80 to 100%
3) C#Cc1c(F)ccc2cc(O)cc(-c3ncc4c(N5CC6CCC(C5)N6)nc(OCC5(CN6CCN(CC7CCC8(CC7)CCN(C(=O)c7ccc(OC(F)(F)F)c(N9CCC(=O)NC9=O)c7)CC8)CC6)CC5)nc4c3F)c12 | 50 to 80%
4) C#Cc1c(F)ccc2cc(O)cc(-c3ncc4c(N5CC6CCC(C5)N6)nc(OCC56CC(CN7CCN(CC8CCC9(CC8)CCN(C(=O)c8ccc(Cl)c(N%10CCC(=O)NC%10=O)c8)CC9)CC7)(C5)C6)nc4c3F)c12 | 80 to 100%
5) CCc1cccc2cc(O)cc(-c3ncc4c(N5CC6CCC(C5)N6)nc(OCC5(CN6CCN(CC7CCC8(CC7)CCN(C(=O)c7ccc(C)c(N9CCC(=O)NC9=O)c7)CC8)CC6)CC5)nc4c3F)c12 | 80 to 100%

Request: Return reported Dmax for target or system KRAS-G12D (Homo sapiens, UniProt P01116, G12D), item C#Cc1c(F)ccc2cc(O)cc(-c3ncc4c(N5CC6CCC(C5)N6)nc(OC[C@@H]5CCCN5CCCC5CCN(C(=O)c6ccc(Cl)c(N7CCC(=O)NC7=O)c6)CC5)nc4c3F)c12 .
Response: 30 to 50%

Request: Return reported Dmax for target or system KRAS-G12D (Homo sapiens, UniProt P01116, G12D), item CCc1c(F)ccc2cc(O)cc(-c3ncc4c(N5CC6CCC(C5)N6)nc(OCC5(CN6CCN(CC7CCC8(CC7)CCN(C(=O)c7ccc(Cl)c(N9CCC(=O)NC9=O)c7)CC8)CC6)CC5)nc4c3F)c12 .
Response: 50 to 80%

Request: Return reported Dmax for target or system KRAS-G12D (Homo sapiens, UniProt P01116, G12D), item C#Cc1c(F)ccc2cc(O)cc(-c3ncc4c(N5CC6CCC(C5)N6)nc(OCC5(CN6CCN(CCCC7CCN(C(=O)c8ccc(Cl)c(N9CCC(=O)NC9=O)c8)CC7)CC6)CCC5)nc4c3F)c12 .
Response: 80 to 100%

Request: Return reported Dmax for target or system KRAS-G12D (Homo sapiens, UniProt P01116, G12D), item C#Cc1c(F)ccc2cc(O)cc(-c3ccc4c(N5CC6CCC(C5)N6)nc(OCC5(CN6CCN(CC7CCC8(CC7)CCN(C(=O)c7ccc(C)c(N9CCC(=O)NC9=O)c7)CC8)CC6)CC5)nc4c3F)c12 .
Response: 80 to 100%
